assay explanation: Pharmacokinetics: tumor and plasma levels in 786-O tumor bearing mice
Format: in vivo, NMRI nu/nu mice
measurement conditions: mouse, tumor and plasma, 1 mg/kg; iv, female 786-O tumor bearing NMRI nu/nu mice; read-out: Tumor/Plasma ratio of 7-ethyl camptothecin

smiles entry: CCc1c2c(nc3ccccc13)-c1cc3c(c(=O)n1C2)COC(=O)[C@]3(O)CC
Kp: 0.6

---

tested target: P-gp (ABCB1) (Homo sapiens, UniProt P08183)
Sequence (P08183 whole entry): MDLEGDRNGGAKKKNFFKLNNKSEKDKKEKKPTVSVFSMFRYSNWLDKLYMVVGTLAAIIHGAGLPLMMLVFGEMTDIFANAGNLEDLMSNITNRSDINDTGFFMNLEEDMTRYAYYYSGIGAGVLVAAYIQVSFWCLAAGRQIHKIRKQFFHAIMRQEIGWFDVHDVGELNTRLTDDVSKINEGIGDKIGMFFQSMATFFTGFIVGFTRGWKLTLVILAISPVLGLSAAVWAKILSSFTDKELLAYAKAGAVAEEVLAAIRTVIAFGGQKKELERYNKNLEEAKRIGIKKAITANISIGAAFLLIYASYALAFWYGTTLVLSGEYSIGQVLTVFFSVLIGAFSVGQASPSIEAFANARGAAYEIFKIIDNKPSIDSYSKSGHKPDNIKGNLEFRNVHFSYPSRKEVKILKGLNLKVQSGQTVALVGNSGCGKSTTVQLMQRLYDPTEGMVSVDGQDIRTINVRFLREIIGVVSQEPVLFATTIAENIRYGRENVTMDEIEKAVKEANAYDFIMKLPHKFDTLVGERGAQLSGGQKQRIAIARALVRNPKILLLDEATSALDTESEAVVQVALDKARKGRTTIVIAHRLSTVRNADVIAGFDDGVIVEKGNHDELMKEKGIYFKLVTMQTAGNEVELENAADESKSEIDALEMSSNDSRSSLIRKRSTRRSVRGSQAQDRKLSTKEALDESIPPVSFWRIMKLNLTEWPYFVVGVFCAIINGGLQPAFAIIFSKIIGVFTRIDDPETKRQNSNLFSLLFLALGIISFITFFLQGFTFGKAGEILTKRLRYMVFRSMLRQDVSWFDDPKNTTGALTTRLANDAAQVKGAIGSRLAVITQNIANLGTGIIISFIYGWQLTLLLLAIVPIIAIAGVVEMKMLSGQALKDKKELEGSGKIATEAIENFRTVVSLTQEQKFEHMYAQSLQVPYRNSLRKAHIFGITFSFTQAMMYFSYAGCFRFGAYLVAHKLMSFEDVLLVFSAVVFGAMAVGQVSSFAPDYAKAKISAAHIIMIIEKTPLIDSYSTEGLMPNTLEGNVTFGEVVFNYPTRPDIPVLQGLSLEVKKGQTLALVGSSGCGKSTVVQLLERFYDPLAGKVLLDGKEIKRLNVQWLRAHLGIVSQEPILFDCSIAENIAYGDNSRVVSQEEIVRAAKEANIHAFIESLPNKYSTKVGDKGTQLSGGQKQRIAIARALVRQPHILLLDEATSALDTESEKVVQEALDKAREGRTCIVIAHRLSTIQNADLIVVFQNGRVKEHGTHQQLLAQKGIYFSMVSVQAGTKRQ
assay explanation: in vitro
measurement conditions: pig, LLC-PK1

compound: CCc1c2c(nc3ccccc13)-c1cc3c(c(=O)n1C2)COC(=O)[C@]3(O)CC [7-Ethyl-camptothecin]
efflux ratio at 2 h: 0.6

---

assay explanation: Caco-2 flux assay for cellular permeability
Format: in vitro ADME
measurement conditions: human; Caco-2, 2 hours incubation

smiles entry: CCc1c2c(nc3ccccc13)-c1cc3c(c(=O)n1C2)COC(=O)[C@]3(O)CC
Papp A→B at 2 h / ×10⁻⁶ cm/s: 17.1

---

Test system: P-gp
assay explanation: Cytotoxicity in vitro against NCI-H1975 transfected with P-gp
Type: cell-based
measurement conditions: human
pIC50: −log10 of the molar value.
quantity measured: pIC50

molecule: CCc1c2c(nc3ccccc13)-c1cc3c(c(=O)n1C2)COC(=O)[C@]3(O)CC [7-Ethyl-camptothecin]
quantity measured: pIC50
recorded value: 7.47

---

assay explanation: Caco-2 flux assay for cellular permeability
Type: in vitro ADME
measurement conditions: human; Caco-2, Papp (B-A) to Papp (A-B)
Experimental: The cell permeability of a substance can be investigated by means of in vitro testing in a flux assay using Caco-2 cells [M. D. Troutman and D. R. Thakker, Pharm. Res. 20 (8), 1210-1224 (2003)]. For this purpose. the cells were cultured for 15-16 days on 24-well filter plates. […] The samples were separated by HPLC (Agilent 1200. Böblingen. Germany) using reverse phase columns. […] 1716-1725 (2003)]. […]
quantity measured: efflux ratio at 2 h

smiles entry: CCc1c2c(nc3ccccc13)-c1cc3c(c(=O)n1C2)COC(=O)[C@]3(O)CC
recorded value: 1

---

Test system: BCRP
assay explanation: Cytotoxicity in vitro against NCI-H1975 transfected with BCRP
Assay type: cell-based
measurement conditions: human
Text: The cytotoxic activity of 7-Ethyl camptothecin is not negatively affected when tumor cells NCI-H1975 was transfected with drug transporters p-Glycoprotein (P-gp) and breast cancer resistant protein (BCRP) which is in strong contrast to SN38.
quantity measured: IC50 (nM)

smiles entry: CCc1c2c(nc3ccccc13)-c1cc3c(c(=O)n1C2)COC(=O)[C@]3(O)CC
recorded value: 27

---

Test system: NCI-H1975-BCRP
assay explanation: Cytotoxicity in vitro against NCI-H1975 transfected with BCRP
Assay type: cell-based
From the text: The cytotoxic activity of 7-Ethyl camptothecin is not negatively affected when tumor cells NCI-H1975 was transfected with drug transporters p-Glycoprotein (P-gp) and breast cancer resistant protein (BCRP) which is in strong contrast to SN38.

molecule: CCc1c2c(nc3ccc(O)cc13)-c1cc3c(c(=O)n1C2)COC(=O)[C@]3(O)CC [SN38]
IC50: 512 nM

---

tested target: P-gp (ABCB1) (Homo sapiens)
assay explanation: in vitro
measurement conditions: pig, LLC-PK1

smiles entry: CCc1c2c(nc3ccccc13)-c1cc3c(c(=O)n1C2)COC(=O)[C@]3(O)CC
Papp A→B at 2 h [×10⁻⁶ cm/s]: 19.6
